# target: Receptor tyrosine-protein kinase erbB-2 (Homo sapiens, UniProt P04626); further: in other assays of this panel Not Active means under 50% inhibition at 10 µM;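 further: inhibition of HER2 kinase enzyme activity, measured with Poly(Glu:Tyr) as the phosphorylation substrate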
# Sequence (P04626 whole entry): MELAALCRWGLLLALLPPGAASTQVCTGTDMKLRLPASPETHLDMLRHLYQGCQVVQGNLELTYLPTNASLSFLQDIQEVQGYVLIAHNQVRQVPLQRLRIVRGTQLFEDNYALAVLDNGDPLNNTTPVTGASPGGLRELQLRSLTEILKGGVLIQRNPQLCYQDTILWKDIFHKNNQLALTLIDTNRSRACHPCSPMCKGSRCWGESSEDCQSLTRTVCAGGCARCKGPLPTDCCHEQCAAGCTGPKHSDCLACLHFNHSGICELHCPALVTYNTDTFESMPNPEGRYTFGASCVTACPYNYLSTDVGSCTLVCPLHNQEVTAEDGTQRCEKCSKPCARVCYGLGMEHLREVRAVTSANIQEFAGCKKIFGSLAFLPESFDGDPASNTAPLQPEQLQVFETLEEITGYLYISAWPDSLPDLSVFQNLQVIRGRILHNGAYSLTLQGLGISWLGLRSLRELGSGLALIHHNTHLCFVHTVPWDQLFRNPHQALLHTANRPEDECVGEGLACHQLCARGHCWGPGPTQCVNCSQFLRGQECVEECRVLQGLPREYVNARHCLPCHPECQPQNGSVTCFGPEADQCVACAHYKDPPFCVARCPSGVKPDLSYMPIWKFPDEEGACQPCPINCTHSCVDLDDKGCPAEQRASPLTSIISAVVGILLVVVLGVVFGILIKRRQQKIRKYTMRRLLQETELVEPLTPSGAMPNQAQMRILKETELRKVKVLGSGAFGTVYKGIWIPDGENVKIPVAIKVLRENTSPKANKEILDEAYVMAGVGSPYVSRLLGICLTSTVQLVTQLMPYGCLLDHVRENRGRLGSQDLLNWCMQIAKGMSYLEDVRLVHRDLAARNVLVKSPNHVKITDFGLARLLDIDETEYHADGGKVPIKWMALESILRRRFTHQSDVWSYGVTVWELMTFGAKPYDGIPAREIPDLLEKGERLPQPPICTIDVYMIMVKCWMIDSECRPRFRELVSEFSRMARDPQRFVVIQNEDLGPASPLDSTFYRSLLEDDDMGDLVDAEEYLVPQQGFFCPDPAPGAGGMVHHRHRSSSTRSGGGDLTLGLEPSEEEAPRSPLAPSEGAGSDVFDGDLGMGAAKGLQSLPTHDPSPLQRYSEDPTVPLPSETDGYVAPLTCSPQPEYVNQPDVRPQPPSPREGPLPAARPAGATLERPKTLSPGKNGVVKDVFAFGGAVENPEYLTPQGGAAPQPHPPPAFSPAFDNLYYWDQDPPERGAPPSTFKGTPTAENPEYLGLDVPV
# Format: cell-based
# stated conditions: insect cells
measured metric: IC50

Solved entries (count: 5):
[[record]]
compound = "Oc1ncnc2[nH]ncc12 [ALLOPURINOL]"
reported = "Not Active"

[[record]]
compound = "CO[C@H]1O[C@@H]2O[C@@]3(C)CC[C@H]4[C@H](C)CC[C@@H]([C@H]1C)[C@@]24OO3"
reported = "Not Active"

[[record]]
compound = "CCC(C)(C)C(=O)O[C@H]1C[C@@H](C)C=C2C=C[C@H](C)[C@H](CC[C@@H]3C[C@@H](O)CC(=O)O3)[C@H]21 [SIMVASTATIN]"
reported = "Not Active"

[[record]]
compound = "COc1cc(/C=C/C(=O)O)ccc1O [FERULATE]"
reported = "Not Active"

[[record]]
compound = "COC(=O)Nc1nc2ccc(Sc3ccccc3)cc2[nH]1 [FENBENDAZOLE]"
reported = "Not Active"


Hi, could you look up IC50 for each item in my list?
1. Cc1cccc(C)c1NC(=O)C(C)N (stereo not given) [TOCAINIDE]
2. O=C(Nc1ccc(Cl)c(Cl)c1)c1cc(Cl)cc(Cl)c1O [3,3',4',5-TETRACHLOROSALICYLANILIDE]
3. NS(=O)(=O)c1cc(C(=O)O)c(NCc2ccco2)cc1Cl [FUROSEMIDE]
4. NC(=O)CN1CCCC1=O
5. Cc1nnc(NS(=O)(=O)c2ccc(N)cc2)s1 [SULFAMETHIZOLE]

Not Active
Not Active
Not Active
Not Active
Not Active
